Quick reference: EC50 IFN-gamma production, MLR of the listed items.
Biological target: T1, human VISTA expressed on cells (human, UniProt Q9H7M9 33-295)
T1 sequence: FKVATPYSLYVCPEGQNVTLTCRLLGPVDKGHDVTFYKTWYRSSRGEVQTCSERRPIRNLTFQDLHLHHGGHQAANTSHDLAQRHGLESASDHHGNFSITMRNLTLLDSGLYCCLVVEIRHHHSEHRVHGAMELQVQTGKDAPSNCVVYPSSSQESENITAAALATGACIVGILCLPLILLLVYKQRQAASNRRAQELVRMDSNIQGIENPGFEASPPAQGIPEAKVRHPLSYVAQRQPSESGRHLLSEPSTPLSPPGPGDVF
Assay: cell-based or functional assay
State just the number; it will be interpreted in µg/mL.

Examples with their reported EC50 IFN-gamma production, MLR follow.
>>> measured_number("VSTB53 (antibody, human IgG1, kappa, V domains shown, also called S43; INX Code 43) VH: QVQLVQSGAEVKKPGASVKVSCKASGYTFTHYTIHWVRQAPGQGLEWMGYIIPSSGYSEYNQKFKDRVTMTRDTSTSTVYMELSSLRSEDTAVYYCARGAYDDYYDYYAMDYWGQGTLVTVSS VL: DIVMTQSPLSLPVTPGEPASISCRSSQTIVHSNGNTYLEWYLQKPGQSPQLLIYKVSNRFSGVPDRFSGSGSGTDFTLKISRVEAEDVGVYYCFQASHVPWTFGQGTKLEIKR")
1.88
>>> measured_number("VSTB60 (antibody, human IgG1, kappa, V domains shown, also called S47; INX Code 47) VH: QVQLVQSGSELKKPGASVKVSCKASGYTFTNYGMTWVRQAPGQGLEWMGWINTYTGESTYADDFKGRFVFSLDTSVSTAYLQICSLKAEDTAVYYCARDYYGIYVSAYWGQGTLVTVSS VL: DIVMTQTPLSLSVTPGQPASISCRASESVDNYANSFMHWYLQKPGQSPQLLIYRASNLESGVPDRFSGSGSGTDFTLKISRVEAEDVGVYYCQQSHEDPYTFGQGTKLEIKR")
2.48

*Q* For the binder VSTB95 (antibody, human IgG1, kappa, V domains shown, also called S16; INX Code 16) VH: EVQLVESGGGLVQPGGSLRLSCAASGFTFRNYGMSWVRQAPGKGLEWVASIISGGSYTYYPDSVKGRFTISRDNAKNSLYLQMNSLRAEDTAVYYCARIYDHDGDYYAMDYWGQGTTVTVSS VL: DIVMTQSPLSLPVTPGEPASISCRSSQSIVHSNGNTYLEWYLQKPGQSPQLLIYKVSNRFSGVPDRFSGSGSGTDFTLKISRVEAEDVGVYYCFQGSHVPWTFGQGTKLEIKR , give its reported EC50 IFN-gamma production, MLR.
*A* 1.67
